The origin of these recorded values is patent US20220403048A1.

experimental target: cynomolgus ARG2
Sequence (as listed by the source): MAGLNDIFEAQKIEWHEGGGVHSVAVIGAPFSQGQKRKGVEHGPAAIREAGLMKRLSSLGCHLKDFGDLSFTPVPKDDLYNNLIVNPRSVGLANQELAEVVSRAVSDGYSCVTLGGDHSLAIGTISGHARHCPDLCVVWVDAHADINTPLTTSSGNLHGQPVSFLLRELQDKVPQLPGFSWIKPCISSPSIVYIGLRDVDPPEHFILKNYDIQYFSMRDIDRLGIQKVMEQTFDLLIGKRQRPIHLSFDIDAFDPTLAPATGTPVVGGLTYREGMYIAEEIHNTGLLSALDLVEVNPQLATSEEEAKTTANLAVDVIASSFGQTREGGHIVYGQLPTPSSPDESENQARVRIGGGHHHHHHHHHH
assay comment: Bio-Layer Interferometry (OctetRED) binding kinetics, cynomolgus ARG2
condition notes: second-generation Fab; cyno ARG2 ligand; same extended assay
experimental endpoint: kd (s⁻¹)
Give the quantity in s⁻¹, number only.

# input Bench note: what kd did C0021180: anti-ARG2 antibody, VH SEQ ID NO: 332, VL SEQ ID NO: 337 (antibody, listed as Homo sapiens, V domains shown, C0021180) VH: EVQLLESGGGLVQPGGSLRLSCAASGFTFRYEVAAWVRQAPGKGLEWVSAISGPIPKGYYADSVKGRFTISRDNSKNTLYLQMNSLRAEDTAVYYCARLRADLGLYMDLWGRGTLVTVSS VL: QSVLTQPPTVSAAPGRKVTISCSGSSSNIGDHHVSWYQQLPGAAPKLLIYDTDHMASGIPDRFSGSRSGTSATLGITGLQTGDEADYYCGTWDSSLSALVFGGGTKLTVL show?
# output 0.000135
